Where do the numbers come from? From patent US20170253656A1.

assay-system: T1, hu-CD74 antigen (R&D SYSTEMS catalog #3590-CD-050) (human, UniProt P04233-2 73-232, limits assumed)
T1 construct: Bought antigen; also called rhCD74; human CD74
T1 sequence (looked up): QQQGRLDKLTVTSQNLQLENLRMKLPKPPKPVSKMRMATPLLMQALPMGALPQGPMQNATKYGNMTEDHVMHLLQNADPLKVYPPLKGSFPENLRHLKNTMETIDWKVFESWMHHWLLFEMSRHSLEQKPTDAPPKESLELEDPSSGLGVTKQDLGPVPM
measurement-notes: SPR (Biacore T200), IgG captured on anti-human Fc, rhCD74 analyte
Overview of reported koff across a group of binders:
# output: bare number, implied unit s⁻¹

Some solved cases for reference:
binder | koff [s⁻¹]
HC 1251_B08 (wt)/LC 1337_A09 (g) (antibody, human IgG1, kappa, V domains shown, IgG format) VH: QVQLVESGGGVVQPGRSLRLSCAASGFNFSDYGMHWVRQAPDKGLEWVAVIWYDGSISYYADSVKGRFTISRDNSKNTLYLQMNSLRAEDTAVYYCARGGTVEHGAVYGTDVWGQGATVTVSS VL: DIQMTQSPSSVSASVGDRVTITCRASQGIGSWLAWYQQKPGKAPKLLIYAADRLQSGVPSRFSGSGSGTDFTLTISSLQPEDFATYYCQQYHTYPLTFGGGTKVEIKR | 0.000115
HC 1251_B08 (wt)/LC 1337_A07 (g) (antibody, human IgG1, kappa, V domains shown, IgG format) VH: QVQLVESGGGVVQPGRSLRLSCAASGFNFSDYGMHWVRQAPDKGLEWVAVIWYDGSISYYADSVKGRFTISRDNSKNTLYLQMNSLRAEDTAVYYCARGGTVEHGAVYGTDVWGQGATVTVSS VL: DIQMTQSPSSVSASVGDRVTITCRASQGISSWVAWYQQKPGKAPKLLIYGASRLQSGVPSRFSGSGSGTDFTLTISSLQPEDFATYYCQQYHTYPLTFGGGTKVEIKR | 0.000142
HC 1251_B08 (g)/LC 1275_C10 (g) (antibody, human IgG1, kappa, V domains shown, IgG format) VH: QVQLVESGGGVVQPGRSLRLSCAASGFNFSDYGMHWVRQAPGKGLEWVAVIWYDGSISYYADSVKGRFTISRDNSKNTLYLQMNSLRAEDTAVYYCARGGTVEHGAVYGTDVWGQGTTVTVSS VL: DIQMTQSPSSVSASVGDRVTITCRASQGVSSWLAWYQQKPGKAPKLLIYSARYLQSGVPSRFSGSGSGTDFTLTISSLQPEDFATYYCQQYNLYPLTFGGGTKVEIKR | 0.000102
HC 1251_A06 (wt)/LC 1337_A10 (g) (antibody, human IgG1, kappa, V domains shown, IgG format) VH: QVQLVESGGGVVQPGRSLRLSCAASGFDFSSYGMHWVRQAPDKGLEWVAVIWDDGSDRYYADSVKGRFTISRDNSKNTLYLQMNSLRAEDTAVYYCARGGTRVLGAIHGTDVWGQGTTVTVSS VL: DIQMTQSPSSVSASVGDRVTITCRASQGISSWVAWYQQKPGKAPKLLIYGSSRLQSGVPSRFSGSGSGTDFTLTISSLQPEDFATYYCQQYNTYPLTFGGGTKVEIKR | 0.000235

Could you now consider this next binder?
-- ask Fill blank: measured koff of the binder HC 1251_A06 (wt)/LC 1337_A10 (wt) (antibody, human IgG1, kappa, V domains shown, IgG format) VH: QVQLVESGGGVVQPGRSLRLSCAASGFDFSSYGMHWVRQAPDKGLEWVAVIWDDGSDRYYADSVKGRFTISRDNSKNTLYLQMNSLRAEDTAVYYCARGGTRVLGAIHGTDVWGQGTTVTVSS VL: DIQMTQSPSSLSASVGDRVTITCRASQGISSWVAWYQQKPEKAPKSLIYGSSRLQSGVPSRFSGSGSGTDFTLTISSLQPEDFATYYCQQYNTYPLTFGGGTKVEIKR is ____.
-- reply 0.000174
